TARGET OF ASSAY: Plk1 (Homo sapiens, UniProt P53350)
Construct: in the presence of 15 nM Plk1 (A20-K338)
Sequence (P53350 20-338): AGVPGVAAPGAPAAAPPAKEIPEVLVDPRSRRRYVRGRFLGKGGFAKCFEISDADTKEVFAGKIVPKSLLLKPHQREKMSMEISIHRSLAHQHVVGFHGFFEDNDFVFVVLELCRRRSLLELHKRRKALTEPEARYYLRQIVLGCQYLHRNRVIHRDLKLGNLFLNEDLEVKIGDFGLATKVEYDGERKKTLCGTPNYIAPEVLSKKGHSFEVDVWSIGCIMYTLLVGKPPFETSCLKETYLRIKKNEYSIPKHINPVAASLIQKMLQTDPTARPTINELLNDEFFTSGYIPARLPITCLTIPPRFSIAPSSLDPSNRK
TEST METHOD NOTES: Plk1 inhibition assay (radioactive-phosphate incorporation)
Format: biochemical
EXPERIMENTAL CONDITIONS: Ki(app), lower bound in nM, upper bound in μM, protocol not specified
PROPERTY MEASURED: Ki

// fetch Ki given entry CC(Oc1cc(-c2cc(N)n[nH]2)sc1C(N)=O)c1ccccc1Cl (stereo not shown) 100 to 4000 nM

----------
TARGET OF ASSAY: Plk1 (Homo sapiens)
Construct: in the presence of 15 nM Plk1 (A20-K338)
TEST METHOD NOTES: Plk1 inhibition assay (radioactive-phosphate incorporation)
Format: biochemical
EXPERIMENTAL CONDITIONS: Ki(app), the text does not say which of the two Plk1 protocols was used
PROPERTY MEASURED: Ki

// fetch Ki given entry CC(Oc1cc(-n2ccnc2)sc1C(N)=O)c1ccccc1Cl (stereo not shown) 10 to 100 nM
